test.system: HLA-B*0702 (human)
test.method.notes: competition vs 125I probe peptide, purified HLA, gel filtration
particulars: remark: other sources report otherwise
measured.endpoint: IC50 (nM)
Give just the numeric value; nM need not be written.

Just so you know, measured IC50 for VPSALNPA (modifications not checked) [Peptide 19.0016 (HBV POL 769, VPSALNPA)] came out at 3000
